EXPERIMENTAL_PROTOCOL: Determination of water solubility of the sodium salts of the phosphines
Assay type: physicochemical
RUN_CONDITIONS: saturated supernatant evaporated to dryness and weighed
MEASUREMENT_LABEL: solubility thermodynamic (mg/mL)

[a] O=S(=O)(O)c1cccc(P(c2ccccc2)c2ccc(C(F)(F)F)cc2)c1 (stereo not shown)
[b] O=S(=O)(O)c1cccc(P(c2cccc(S(=O)(=O)O)c2)c2ccccc2C(F)(F)F)c1
[c] O=S(=O)(O)c1cccc(P(c2ccccc2)c2ccccc2C(F)(F)F)c1 (stereo not shown)
INPUT: Sort key = solubility thermodynamic. Sort direction = ascending. Apply to the list above. Put the labels in the requested order and list them out.
OUTPUT: b, c, a
(b: 30 mg/mL, c: 210 mg/mL, a: 500 mg/mL)

---

EXPERIMENTAL_PROTOCOL: Determination of water solubility of the sodium salts of the phosphines
Type: physicochemical
RUN_CONDITIONS: saturated supernatant evaporated to dryness and weighed
solubility thermodynamic values, listed per item

For orientation, consider the following solved cases.
COMPOUND: O=S(=O)(O)c1cccc(P(c2cc(C(F)(F)F)cc(C(F)(F)F)c2)c2cc(C(F)(F)F)cc(C(F)(F)F)c2)c1
solubility thermodynamic: 2 to 12 mg/mL
--
COMPOUND: O=S(=O)(O)c1cccc(P(c2ccccc2)c2cc(C(F)(F)F)cc(C(F)(F)F)c2)c1 (stereo not shown)
solubility thermodynamic: > 1000 mg/mL

INPUT: Report solubility thermodynamic for O=S(=O)(O)c1cccc(P(c2ccccc2C(F)(F)F)c2ccccc2C(F)(F)F)c1 please.
OUTPUT: 2 to 12 mg/mL

INPUT: Report solubility thermodynamic for O=S(=O)(O)c1cccc(P(c2ccc(C(F)(F)F)cc2)c2ccc(C(F)(F)F)cc2)c1 please.
OUTPUT: 2 to 12 mg/mL
